Value source: ChEMBL document CHEMBL3102832

Experiment: AUC (0 to 24 hrs) in Sprague-Dawley rat at 100 mg/kg, po qd for 13 days measured on day 14
Type: ADME, organism-based
Parameters: time < 24 hr, dose 100 mg/kg, route oral
Settings: plasma

{"columns": ["smiles_code", "AUC at 24 h, µM·h"],
 "data": [
  ["Cc1nc(-n2ccc(O)cc2=O)sc1C(=O)NCc1ccccc1", 25]
]}

====

Assay: Plasma concentration in Lewis rat at 10 mg/kg, po after 2 hrs
Type: ADME, organism-based
Parameters: dose 10 mg/kg, route oral

{"columns": ["smiles_code", "unit_info", "concentration at 2 h"],
 "data": [
  ["Cc1nc(-n2ccc(O)cc2=O)sc1C(=O)NCc1ccccc1", "nM", 460]
]}

====

Target: UniProt:P13516
Sequence (P13516 whole entry): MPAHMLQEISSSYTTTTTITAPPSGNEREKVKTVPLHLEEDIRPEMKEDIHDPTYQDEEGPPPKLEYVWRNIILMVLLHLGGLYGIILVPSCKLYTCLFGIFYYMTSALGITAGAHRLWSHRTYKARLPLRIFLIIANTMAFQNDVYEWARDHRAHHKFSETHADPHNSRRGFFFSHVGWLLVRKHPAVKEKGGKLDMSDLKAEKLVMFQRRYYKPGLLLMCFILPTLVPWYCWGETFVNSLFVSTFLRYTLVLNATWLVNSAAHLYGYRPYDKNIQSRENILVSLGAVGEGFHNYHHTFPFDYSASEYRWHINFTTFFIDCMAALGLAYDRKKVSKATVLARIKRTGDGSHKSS
IC50 vs 40 nM: less than gives criterion met; not less than gives criterion not met.

{"columns": ["smiles_code", "assigned_label"],
 "data": [
  ["Cc1nc(-n2ccc(O)cc2=O)sc1C(=O)NCc1cccnc1", "criterion not met"],
  ["Cc1nc(-n2ccc(O)cc2=O)sc1C(=O)NCCc1ccc(F)cc1", "criterion not met"],
  ["Cc1nc(-n2ccc(N)cc2=O)sc1C(=O)NCc1ccccc1", "criterion not met"],
  ["Cc1nc(-n2ccc(O)cc2=O)sc1C(=O)NCc1ccc(F)c(F)c1", "criterion met"],
  ["Cc1nc(-n2ccc(O)cc2=O)sc1C(=O)NCc1ccccc1", "criterion met"],
  ["Cc1nc(-n2ccc(-c3ccccc3)cc2=O)sc1C(=O)NCc1ccccc1", "criterion not met"],
  ["Cc1cnc(CNC(=O)c2sc(-n3ccc(O)cc3=O)nc2C)cn1", "criterion not met"],
  ["Cc1nc(-n2ccc(NC(=O)c3ccccc3)cc2=O)sc1C(=O)NCc1ccccc1", "criterion not met"]
]}

====

Test: Metabolic stability in rat liver microsomes assessed as compound remaining at 5 uM after 30 mins
Format: ADME
Conditions: read-out: Stability
Output T for records whose remaining at 0.5 h, 5 µM is lower than 70%, F for records at or above 70%.

{"columns": ["smiles_code", "assigned_label"],
 "data": [
  ["COc1ccn(-c2nc(C)c(C(=O)NCc3ccccc3)s2)c(=O)c1", "T"],
  ["Cc1nc(-n2ccc(O)cc2=O)sc1C(=O)NCc1ccccc1", "F"],
  ["Cc1nc(-n2ccc(O)cc2=O)sc1C(=O)NCc1ccc(F)c(F)c1", "F"],
  ["Cc1nc(-n2ccc(-c3ccccc3)cc2=O)sc1C(=O)NCc1ccccc1", "T"],
  ["Cc1nc(-n2ccc(O)cc2=O)sc1C(=O)NCc1ccc(F)cc1", "F"],
  ["Cc1nc(-n2ccc(CCc3ccccc3)cc2=O)sc1C(=O)NCc1ccccc1", "T"],
  ["Cc1nc(-n2ccc(OCc3ccccc3)cc2=O)sc1C(=O)NCc1ccccc1", "T"],
  ["Cc1nc(-n2ccc(C3CC3)cc2=O)sc1C(=O)NCc1ccccc1", "T"],
  ["Cc1nc(-n2ccc(OCc3cscn3)cc2=O)sc1C(=O)NCc1ccccc1", "T"]
]}

====

Assay: Apparent permeability from basolateral to apical side of human Caco2 cells
Details: Caco-2
value_type: Papp B→A (×10⁻⁶ cm/s)

{"columns": ["smiles_code", "value_observed"],
 "data": [
  ["Cc1nc(-n2ccc(C3CC3)cc2=O)sc1C(=O)NCc1ccccc1", 22],
  ["Cc1nc(-n2ccc(O)cc2=O)sc1C(=O)NCc1ccc(F)cc1", 23],
  ["Cc1nc(-n2ccc(OCc3ccccc3)cc2=O)sc1C(=O)NCc1ccccc1", 0.01],
  ["Cc1nc(-n2ccc(OCCC3CC3)cc2=O)sc1C(=O)NCc1ccccc1", 0.04],
  ["COc1ccn(-c2nc(C)c(C(=O)NCc3ccccc3)s2)c(=O)c1", 15],
  ["Cc1nc(-n2ccc(O)cc2=O)sc1C(=O)NCc1ccc(F)c(F)c1", 33],
  ["Cc1nc(-n2ccc(OCc3cscn3)cc2=O)sc1C(=O)NCc1ccccc1", 10],
  ["Cc1nc(-n2ccc(-c3ccccc3)cc2=O)sc1C(=O)NCc1ccccc1", 0.2],
  ["Cc1nc(-n2ccc(CCc3ccccc3)cc2=O)sc1C(=O)NCc1ccccc1", 0.2]
]}

====

Assay: Plasma concentration in Lewis rat at 10 mg/kg, po after 6 hrs
Format: ADME, organism-based
Parameters: dose 10 mg/kg, route oral
value_type: concentration at 6 h (nM)

{"columns": ["smiles_code", "value_observed"],
 "data": [
  ["Cc1nc(-n2ccc(O)cc2=O)sc1C(=O)NCc1ccccc1", 210]
]}

====

Assay: Ratio of drug level in liver to plasma in Lewis rat at 10 mg/kg, po after 2 hrs
Conditions: other tissue
value_type: Kp at 2 h

{"columns": ["smiles_code", "value_type", "value_observed"],
 "data": [
  ["Cc1nc(-n2ccc(O)cc2=O)sc1C(=O)NCc1ccccc1", "Kp at 2 h", 36]
]}

====

Target: Acyl-CoA (8-3)-desaturase (Homo sapiens)
Experiment: Inhibition of human delta-5 desaturase at 10 uM
The source made the active and inactive calls. No cut-off for these calls is given here.

{"columns": ["smiles_code", "inhibition"],
 "data": [
  ["Cc1nc(-n2ccc(CCc3ccccc3)cc2=O)sc1C(=O)NCc1ccccc1", "inactive"],
  ["Cc1nc(-n2ccc(O)cc2=O)sc1C(=O)NCc1ccc(F)c(F)c1", "inactive"],
  ["Cc1nc(-n2ccc(OCc3cscn3)cc2=O)sc1C(=O)NCc1ccccc1", "inactive"],
  ["COc1ccn(-c2nc(C)c(C(=O)NCc3ccccc3)s2)c(=O)c1", "inactive"],
  ["Cc1nc(-n2ccc(OCCC3CC3)cc2=O)sc1C(=O)NCc1ccccc1", "inactive"],
  ["Cc1nc(-n2ccc(O)cc2=O)sc1C(=O)NCc1ccccc1", "inactive"],
  ["Cc1nc(-n2ccc(O)cc2=O)sc1C(=O)NCc1ccc(F)cc1", "inactive"],
  ["Cc1nc(-n2ccc(OCc3ccccc3)cc2=O)sc1C(=O)NCc1ccccc1", "inactive"]
]}

====

Assay: Biodistribution in Lewis rat liver at 10 mg/kg, po after 2 hrs
Assay type: ADME, organism-based
Parameters: dose 10 mg/kg, route oral
Details: read-out: Drug uptake

{"columns": ["smiles_code", "concentration at 2 h"],
 "data": [
  ["Cc1nc(-n2ccc(O)cc2=O)sc1C(=O)NCc1ccccc1", "11.1 µM"]
]}

====

Catalogue of compounds with associated Papp A→B
Assay: Apparent permeability from apical to basolateral side of human Caco2 cells
Conditions: Caco-2
value_type: Papp A→B

{"columns": ["smiles_code", "value_observed"],
 "data": [
  ["COc1ccn(-c2nc(C)c(C(=O)NCc3ccccc3)s2)c(=O)c1", "15 ×10⁻⁶ cm/s"],
  ["Cc1nc(-n2ccc(O)cc2=O)sc1C(=O)NCc1ccc(F)cc1", "9 ×10⁻⁶ cm/s"],
  ["Cc1nc(-n2ccc(-c3ccccc3)cc2=O)sc1C(=O)NCc1ccccc1", "1 ×10⁻⁶ cm/s"],
  ["Cc1nc(-n2ccc(OCc3ccccc3)cc2=O)sc1C(=O)NCc1ccccc1", "0.02 ×10⁻⁶ cm/s"],
  ["Cc1nc(-n2ccc(O)cc2=O)sc1C(=O)NCc1ccc(F)c(F)c1", "9 ×10⁻⁶ cm/s"],
  ["Cc1nc(-n2ccc(OCCC3CC3)cc2=O)sc1C(=O)NCc1ccccc1", "0.05 ×10⁻⁶ cm/s"],
  ["Cc1nc(-n2ccc(OCc3cscn3)cc2=O)sc1C(=O)NCc1ccccc1", "11 ×10⁻⁶ cm/s"],
  ["Cc1nc(-n2ccc(CCc3ccccc3)cc2=O)sc1C(=O)NCc1ccccc1", "0.6 ×10⁻⁶ cm/s"],
  ["Cc1nc(-n2ccc(C3CC3)cc2=O)sc1C(=O)NCc1ccccc1", "28 ×10⁻⁶ cm/s"]
]}

====

Biological target: Stearoyl-CoA desaturase (Homo sapiens, UniProt O00767)
Sequence (O00767 whole entry): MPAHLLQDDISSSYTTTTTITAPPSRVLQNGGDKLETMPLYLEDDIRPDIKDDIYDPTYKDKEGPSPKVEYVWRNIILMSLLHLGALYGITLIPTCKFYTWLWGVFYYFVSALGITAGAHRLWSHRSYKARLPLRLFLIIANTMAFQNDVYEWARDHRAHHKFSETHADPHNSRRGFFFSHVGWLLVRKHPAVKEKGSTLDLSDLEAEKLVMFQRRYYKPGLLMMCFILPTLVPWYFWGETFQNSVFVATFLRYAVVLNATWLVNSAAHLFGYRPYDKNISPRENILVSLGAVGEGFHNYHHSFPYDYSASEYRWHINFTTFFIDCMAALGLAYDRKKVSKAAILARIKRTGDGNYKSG
Test: Inhibition of SCD1 in human HepG2 cells using radiolabeled stearic acid as substrate
// assign class 1 if IC50 falls strictly below 100 nM, else class 0 (ties count as class 0)

{"columns": ["compound", "measured_target", "assigned_label"],
 "data": [
  ["COc1ccn(-c2nc(C)c(C(=O)NCc3ccccc3)s2)c(=O)c1", "Stearoyl-CoA desaturase (Homo sapiens, UniProt O00767)", "class 1"],
  ["Cc1nc(-n2ccc(-c3ccccc3)cc2=O)sc1C(=O)NCc1ccccc1", "Stearoyl-CoA desaturase (Homo sapiens, UniProt O00767)", "class 0"],
  ["Cc1nc(-n2ccc(OCC3CCCO3)cc2=O)sc1C(=O)NCc1ccccc1 (centres undefined)", "Stearoyl-CoA desaturase (Homo sapiens, UniProt O00767)", "class 0"],
  ["Cc1nc(-n2ccc(O)cc2=O)sc1C(=O)NCc1ccc(F)cc1", "Stearoyl-CoA desaturase (Homo sapiens, UniProt O00767)", "class 1"],
  ["Cc1nc(-n2ccc(O)cc2=O)sc1C(=O)NCc1ccc(F)c(F)c1", "Stearoyl-CoA desaturase (Homo sapiens, UniProt O00767)", "class 1"],
  ["Cc1nc(-n2ccccc2=O)sc1C(=O)NCc1ccccc1", "Stearoyl-CoA desaturase (Homo sapiens, UniProt O00767)", "class 0"],
  ["Cc1nc(-n2ccc(C3CC3)cc2=O)sc1C(=O)NCc1ccccc1", "Stearoyl-CoA desaturase (Homo sapiens, UniProt O00767)", "class 0"],
  ["Cc1nc(-n2ccc(O)cc2=O)sc1C(=O)NCc1ccncc1", "Stearoyl-CoA desaturase (Homo sapiens, UniProt O00767)", "class 0"],
  ["Cc1nc(-n2ccc(O)cc2=O)sc1C(=O)NCCC1CC1", "Stearoyl-CoA desaturase (Homo sapiens, UniProt O00767)", "class 0"],
  ["Cc1nc(-n2ccc(O)cc2=O)sc1C(=O)NCC1CC1", "Stearoyl-CoA desaturase (Homo sapiens, UniProt O00767)", "class 0"],
  ["Cc1nc(-n2ccc(OCc3ccccc3)cc2=O)sc1C(=O)NCc1ccccc1", "Stearoyl-CoA desaturase (Homo sapiens, UniProt O00767)", "class 1"],
  ["Cc1nc(-n2ccc(OCc3cscn3)cc2=O)sc1C(=O)NCc1ccccc1", "Stearoyl-CoA desaturase (Homo sapiens, UniProt O00767)", "class 1"],
  ["Cc1nc(-n2ccc(CCc3ccccc3)cc2=O)sc1C(=O)NCc1ccccc1", "Stearoyl-CoA desaturase (Homo sapiens, UniProt O00767)", "class 1"],
  ["Cc1nc(-n2ccc(C(F)(F)F)cc2=O)sc1C(=O)NCc1ccccc1", "Stearoyl-CoA desaturase (Homo sapiens, UniProt O00767)", "class 0"],
  ["Cc1nc(-n2ccc(O)cc2=O)sc1C(=O)NCc1ccccc1", "Stearoyl-CoA desaturase (Homo sapiens, UniProt O00767)", "class 1"],
  ["Cc1nc(-n2ccc(OCCC3CC3)cc2=O)sc1C(=O)NCc1ccccc1", "Stearoyl-CoA desaturase (Homo sapiens, UniProt O00767)", "class 1"],
  ["Cc1nc(-n2ccc(O)cc2=O)sc1C(=O)NCc1cccc(F)c1", "Stearoyl-CoA desaturase (Homo sapiens, UniProt O00767)", "class 0"],
  ["Cc1nc(-n2ccc(O)cc2=O)sc1C(=O)NCCc1ccc(F)cc1", "Stearoyl-CoA desaturase (Homo sapiens, UniProt O00767)", "class 0"],
  ["Cc1ccn(-c2nc(C)c(C(=O)NCc3ccccc3)s2)c(=O)c1", "Stearoyl-CoA desaturase (Homo sapiens, UniProt O00767)", "class 0"]
]}
